system_under_test: PRKD2 (human)
test_details: radiometric filter-binding kinase assay, Kinase HotSpot
details: compound 0.5 µM; ATP 10 µM
Threshold check on residual activity: at or above 90% gives condition met, strictly below gives condition not met.

{"compound": "CO[C@H]1CC2CC[C@@H](C)[C@@](O)(O2)C(=O)C(=O)N2CCCC[C@H]2C(=O)OC([C@H](C)C[C@@H]2CC[C@@H](O)[C@H](OC)C2)CC(=O)[C@H](C)/C=C(\\C)[C@@H](O)[C@@H](OC)C(=O)[C@H](C)C[C@H](C)/C=C/C=C/C=C/1C (some centres undefined)", "assigned_category": "condition met"}
{"compound": "c1ccc(-c2n[nH]cc2-c2ccnc3ccccc23)nc1", "assigned_category": "condition not met"}
{"compound": "O=c1cc(N2CCOCC2)oc2c1ccc1ccccc12", "assigned_category": "condition met"}
{"compound": "O=C1NC(=O)C(c2cn(CCCn3ccnc3)c3ccccc23)=C1Nc1ccccc1", "assigned_category": "condition met"}
{"compound": "N#C/C(=C(/N)Sc1ccc(N)cc1)c1ccccc1C(F)(F)F", "assigned_category": "condition met"}
{"compound": "CNc1cc2c(Nc3cccc(Br)c3)ncnc2cn1", "assigned_category": "condition not met"}
{"compound": "Oc1cccc(-c2nc(N3CCOCC3)c3oc4ncccc4c3n2)c1", "assigned_category": "condition met"}

====

system_under_test: SRC (human) (UniProt P12931)
Sequence (P12931 whole entry, looked up): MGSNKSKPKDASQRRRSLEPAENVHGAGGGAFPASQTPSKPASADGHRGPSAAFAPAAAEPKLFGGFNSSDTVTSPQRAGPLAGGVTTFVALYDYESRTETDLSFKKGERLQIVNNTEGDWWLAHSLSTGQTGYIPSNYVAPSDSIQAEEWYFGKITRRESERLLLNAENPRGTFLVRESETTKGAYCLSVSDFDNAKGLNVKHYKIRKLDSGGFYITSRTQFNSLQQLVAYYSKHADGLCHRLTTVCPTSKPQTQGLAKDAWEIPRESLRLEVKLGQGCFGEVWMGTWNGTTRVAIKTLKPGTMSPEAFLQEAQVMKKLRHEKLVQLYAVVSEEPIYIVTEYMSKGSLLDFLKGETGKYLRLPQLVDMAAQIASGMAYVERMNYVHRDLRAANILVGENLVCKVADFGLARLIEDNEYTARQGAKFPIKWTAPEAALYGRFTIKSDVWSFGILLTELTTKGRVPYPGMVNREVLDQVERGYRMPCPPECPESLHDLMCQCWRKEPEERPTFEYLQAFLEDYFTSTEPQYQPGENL
test_details: radiometric filter-binding kinase assay, Kinase HotSpot
details: compound 0.5 µM; ATP 10 µM
experimental_readout: residual activity (%)

{"molecule": "CCC(=O)Nc1ccc2ncnc(Nc3cccc(Br)c3)c2c1", "units_label": "%", "readout_number": 93.6}
{"molecule": "CCN(CC)C(=O)c1ccc(Nc2nc(OCC3CCCCC3)c3nc[nH]c3n2)cc1", "units_label": "%", "readout_number": 72.8}
{"molecule": "O=S(=O)(c1cccc2cnccc12)N1CCCNCC1", "units_label": "%", "readout_number": 85.3}
{"molecule": "c1ccc(-c2n[nH]cc2-c2ccnc3ccccc23)nc1", "units_label": "%", "readout_number": 94.7}
{"molecule": "c1ccc(-c2n[nH]c3c2oc2ccccc23)cc1", "units_label": "%", "readout_number": 81.3}
{"molecule": "CC(=O)c1ccc(N2CCOCC2)cc1O", "units_label": "%", "readout_number": 104}
{"molecule": "Nc1ccc2ncnc(NCCc3ccc(Oc4ccccc4)cc3)c2c1", "units_label": "%", "readout_number": 102}
{"molecule": "COc1ccc(COc2ccc(Cc3cnc(N)nc3N)cc2OC)cc1", "units_label": "%", "readout_number": 97.9}
{"molecule": "Nc1ncnc2[nH]nc(Nc3ccc(F)cc3)c12", "units_label": "%", "readout_number": 89.6}
{"molecule": "N#CC(C#N)=C(N)/C(C#N)=C/c1ccc(O)cc1", "units_label": "%", "readout_number": 92.3}
{"molecule": "CC[n+]1c(/C=C/N(C)c2ccccc2)n(-c2ccccc2)c2ccc(-c3nc4ccccc4s3)cc21", "units_label": "%", "readout_number": 94.5}
{"molecule": "COc1cc2ncnc(Nc3cccc(Cl)c3)c2cc1OC", "units_label": "%", "readout_number": 71.9}
{"molecule": "Nc1ncnc2c1c(-c1ccc(Oc3ccccc3)cc1)cn2C1CCCC1", "units_label": "%", "readout_number": 13.4}
{"molecule": "O=C1Nc2ccc(Cl)cc2/C1=C/c1cc(Cl)c(O)c(Cl)c1", "units_label": "%", "readout_number": 96.2}
{"molecule": "CNc1cc2c(Nc3cccc(Br)c3)ncnc2cn1", "units_label": "%", "readout_number": 94.6}
{"molecule": "CC(C)N(CCC(=O)c1ccc2ccccc2c1)Cc1ccccc1", "units_label": "%", "readout_number": 93.2}
{"molecule": "Cc1ccc(NC2=CC(=O)c3sc(C)nc3C2=O)cc1", "units_label": "%", "readout_number": 79.6}
{"molecule": "O=C1NC(=O)/C(=C/c2ccc3c(c2)OC(F)(F)O3)S1", "units_label": "%", "readout_number": 98.4}
{"molecule": "O=c1cc(N2CCOCC2)oc2c1ccc1ccccc12", "units_label": "%", "readout_number": 99.3}
{"molecule": "CO[C@H]1CC2CC[C@@H](C)[C@@](O)(O2)C(=O)C(=O)N2CCCC[C@H]2C(=O)OC([C@H](C)C[C@@H]2CC[C@@H](O)[C@H](OC)C2)CC(=O)[C@H](C)/C=C(\\C)[C@@H](O)[C@@H](OC)C(=O)[C@H](C)C[C@H](C)/C=C/C=C/C=C/1C (some centres not stated)", "units_label": "%", "readout_number": 96}
{"molecule": "Cc1ccc(Nc2nccc(N(C)c3ccc4c(C)n(C)nc4c3)n2)cc1S(N)(=O)=O", "units_label": "%", "readout_number": 70.7}
{"molecule": "O=C(Nc1cccc(Nc2nccc(Nc3cccc(C(F)(F)F)c3)n2)c1)C1CC1", "units_label": "%", "readout_number": 64.5}

====

system_under_test: CSF1R (human)
test_details: radiometric filter-binding kinase assay, Kinase HotSpot
details: compound 0.5 µM; ATP 10 µM

{"molecule": "N#C/C(=C(/N)Sc1ccc(N)cc1)c1ccccc1C(F)(F)F", "system_under_test": "CSF1R (human)", "residual activity / %": 101}
{"molecule": "COc1ccc2c(c[n+](C)c3c4cc5c(cc4ccc23)OCO5)c1OC", "system_under_test": "CSF1R (human)", "residual activity / %": 99}
{"molecule": "Nc1ccc2ncnc(NCCc3ccc(Oc4ccccc4)cc3)c2c1", "system_under_test": "CSF1R (human)", "residual activity / %": 106}
{"molecule": "CC#CC(=O)Nc1cc2c(Nc3ccc(F)c(Cl)c3)ncnc2cn1", "system_under_test": "CSF1R (human)", "residual activity / %": 101}
{"molecule": "O=C1NC(=O)c2c1c1c3ccccc3n3c1c1c2c2ccccc2n1C1CCC3O1", "system_under_test": "CSF1R (human)", "residual activity / %": 29.3}
{"molecule": "Cc1[nH]c(/C=C2\\C(=O)Nc3ccc(S(=O)(=O)N(C)c4cccc(Cl)c4)cc32)c(C)c1C(=O)N1CCN(C)CC1", "system_under_test": "CSF1R (human)", "residual activity / %": 64.9}
{"molecule": "CCC(=O)Nc1ccc2ncnc(Nc3cccc(Br)c3)c2c1", "system_under_test": "CSF1R (human)", "residual activity / %": 98.9}
{"molecule": "CCN(CC)CCNC(=O)c1c(C)[nH]c(/C=C2\\C(=O)Nc3ccc(Cl)cc32)c1C", "system_under_test": "CSF1R (human)", "residual activity / %": 7.41}
{"molecule": "CCN(CC)C(=O)c1ccc(Nc2nc(OCC3CCCCC3)c3nc[nH]c3n2)cc1", "system_under_test": "CSF1R (human)", "residual activity / %": 5.73}
{"molecule": "Nc1ncnc2[nH]nc(Nc3ccc(F)cc3)c12", "system_under_test": "CSF1R (human)", "residual activity / %": 101}
{"molecule": "COc1cc2ncnc(Nc3cccc(Cl)c3)c2cc1OC", "system_under_test": "CSF1R (human)", "residual activity / %": 98.2}
{"molecule": "c1ccc(-c2n[nH]c3c2oc2ccccc23)cc1", "system_under_test": "CSF1R (human)", "residual activity / %": 78.1}
{"molecule": "Cc1ccc(NC2=CC(=O)c3sc(C)nc3C2=O)cc1", "system_under_test": "CSF1R (human)", "residual activity / %": 89.9}
{"molecule": "CNc1cc2c(Nc3cccc(Br)c3)ncnc2cn1", "system_under_test": "CSF1R (human)", "residual activity / %": 100}
{"molecule": "CO[C@H]1CC2CC[C@@H](C)[C@@](O)(O2)C(=O)C(=O)N2CCCC[C@H]2C(=O)OC([C@H](C)C[C@@H]2CC[C@@H](O)[C@H](OC)C2)CC(=O)[C@H](C)/C=C(\\C)[C@@H](O)[C@@H](OC)C(=O)[C@H](C)C[C@H](C)/C=C/C=C/C=C/1C (stereo partly specified)", "system_under_test": "CSF1R (human)", "residual activity / %": 101}
{"molecule": "Oc1cccc(-c2nc(N3CCOCC3)c3oc4ncccc4c3n2)c1", "system_under_test": "CSF1R (human)", "residual activity / %": 108}
{"molecule": "CC(=O)c1ccc(N2CCOCC2)cc1O", "system_under_test": "CSF1R (human)", "residual activity / %": 100}
{"molecule": "CC(C)N(CCC(=O)c1ccc2ccccc2c1)Cc1ccccc1", "system_under_test": "CSF1R (human)", "residual activity / %": 98.6}
{"molecule": "CCOC(=O)c1c(C)[nH]c(/C=C2\\C(=O)Nc3ccccc32)c1C", "system_under_test": "CSF1R (human)", "residual activity / %": 52.5}
{"molecule": "Nc1ncnc2c1c(-c1ccc(Oc3ccccc3)cc1)cn2C1CCCC1", "system_under_test": "CSF1R (human)", "residual activity / %": 61.3}
{"molecule": "CCN(CC)CCNC(=O)c1c(C)[nH]c(/C=C2\\C(=O)Nc3ccc(F)cc32)c1C", "system_under_test": "CSF1R (human)", "residual activity / %": 7.28}
